src = ChEMBL document CHEMBL5303573

Target: SGNH hydrolase-type esterase domain-containing protein (Phocaeicola dorei)
Sequence (B6W293 whole entry, the tested form may be a part): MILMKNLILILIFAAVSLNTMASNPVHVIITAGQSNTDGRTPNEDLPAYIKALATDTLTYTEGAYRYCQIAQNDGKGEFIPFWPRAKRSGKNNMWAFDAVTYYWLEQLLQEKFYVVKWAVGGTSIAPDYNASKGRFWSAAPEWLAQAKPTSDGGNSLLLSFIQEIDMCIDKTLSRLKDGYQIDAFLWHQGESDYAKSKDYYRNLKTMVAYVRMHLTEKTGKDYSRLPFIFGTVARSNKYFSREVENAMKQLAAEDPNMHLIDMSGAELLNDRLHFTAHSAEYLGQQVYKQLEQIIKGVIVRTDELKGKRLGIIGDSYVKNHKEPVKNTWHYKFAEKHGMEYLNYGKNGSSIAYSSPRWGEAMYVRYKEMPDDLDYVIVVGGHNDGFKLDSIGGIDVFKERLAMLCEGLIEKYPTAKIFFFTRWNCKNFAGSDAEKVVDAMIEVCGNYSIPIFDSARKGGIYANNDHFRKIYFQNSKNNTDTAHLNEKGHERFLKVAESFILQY
Experiment: The drug is tested on Bacteroides dorei strain: DSM17855 for biotransformation. The drug concentrations were measured before and after a 12-h incubation by liquid-chromatography-coupled mass spectrometry (LC–MS)
Format: ADME
Design: dose 2 uM
Details: 2 µM
reported property: Bacterial Biotransformation

See these solved cases before continuing.
CC(=O)Oc1ccc(C(c2ccc(OC(C)=O)cc2)c2ccccn2)cc1 [BISACODYL] : Compound metabolized
CCOC(=O)C1=C(C)NC(C)=C(C(=O)OC)C1c1cccc([N+](=O)[O-])c1 (stereo not drawn) [NITRENDIPINE] : Compound NOT metabolized
C#C[C@]1(O)CC[C@H]2[C@@H]3CCC4=CC(=O)CC[C@@H]4[C@H]3CC[C@@]21CC [LEVONORGESTREL] : Compound NOT metabolized
N#Cc1ccc2c(c1)N(CCCN1CCC(O)CC1)c1ccccc1S2 [PERICIAZINE] : Compound NOT metabolized
O=C(O)c1cc(/N=N/c2ccc(S(=O)(=O)Nc3ccccn3)cc2)ccc1O [SULFASALAZINE] : Compound NOT metabolized
COc1ccc([C@@H]2Sc3ccccc3N(CCN(C)C)C(=O)[C@@H]2OC(C)=O)cc1 [DILTIAZEM] : Compound NOT metabolized

Bench note: what Bacterial Biotransformation did CC(=O)Nc1ccc(OC(C)=O)cc1 [DIACETAMATE] show? Compound metabolized

Bench note: what Bacterial Biotransformation did CC(=O)OCC(=O)NCCCOc1cccc(CN2CCCCC2)c1 [ROXATIDINE ACETATE] show? Compound NOT metabolized

Bench note: what Bacterial Biotransformation did CC(=O)SCC(Cc1ccccc1)C(=O)NCC(=O)OCc1ccccc1 (stereo not drawn) [RACECADOTRIL] show? Compound NOT metabolized

Bench note: what Bacterial Biotransformation did CCN(CC)C(=O)/C(C#N)=C/c1cc(O)c(O)c([N+](=O)[O-])c1 [ENTACAPONE] show? Compound NOT metabolized
